- Test system: Fibroblast
- PROTOCOL DETAILS: Multiplex assay against human fibroblast
- Format: toxicity, cell-based
- MEASUREMENT SETUP: 12 h, 10 µM, compound concentration 10 uM, replicate 2
Label key: T means Population Apoptotic (%) under 40%; F means Population Apoptotic (%) of 40% or more.

CCOc1c2c(c(OCC)c3ncccc13)CN(c1ccc(CS(=O)(=O)NC(=O)Cc3ccccc3OC)cc1C)C2=O
T
O=C(O)c1cc2ccccc2c(Cc2c(O)c(C(=O)O)cc3ccccc23)c1O [PAMOIC ACID]
T
C[C@@H]1C[C@H]2[C@@H]3CCC4=CC(=O)C=C[C@]4(C)[C@@]3(F)[C@@H](O)C[C@]2(C)[C@@]1(O)C(=O)CO [DEXAMETHASONE]
T
CCCn1c(=O)c2[nH]c(C3CCCC3)nc2n(CCC)c1=O
T
C[C@H]1[C@H]2CC[C@H]3[C@@H]4CC=C5C[C@@H](N(C)C)CC[C@]5(C)[C@H]4CC[C@]23CN1C [CONESSINE]
F
Cc1ccc(/C(=C\CN2CCCC2)c2ccccn2)cc1 [TRIPROLIDINE]
F
C[C@H](NC(=O)c1c(C(F)F)nn(C)c1Oc1cccc(C(F)(F)F)c1)c1ccc(C(=O)O)cc1 [PALUPIPRANT]
T
COc1cc(C(=O)N(CCCc2ccccc2)Cc2ccc(CC(=O)O)cc2)cc(OC)c1C
F
c1cc(OCCCN2CCCCC2)ccc1CN1CCCCC1 [JNJ-5207852]
F
Cc1ccc(F)cc1C(=O)Nc1ccc(C(=O)N2Cc3cccn3Cc3ccccc32)c(Cl)c1 [LIXIVAPTAN]
T
O=S(=O)(c1ccccc1)c1cnc2c(N3CCNCC3)cccc2c1 [INTEPIRDINE]
F
CCCC(CCC)C(=O)O [VALPROIC ACID]
F

* * *

- Test system: U2OS
- PROTOCOL DETAILS: Multiplex assay against U2OS
- Format: toxicity, cell-based
- MEASUREMENT SETUP: human, 24 h, 10 µM, compound concentration 10 uM, replicate 2
Recorded Population Normal (%), one value per entry.
QUANTITY NAME: Population Normal (%)

CSc1ccccc1N1CCN(CCCCCC(=O)NC2CCCc3ccccc32)CC1.Cl (centres undefined)
89
O=C(NCCO)c1cccc(-c2cc(Nc3ccc(OC(F)(F)F)cc3)ncn2)c1
98
Oc1c(CN2CCN(c3ccccn3)CC2)cc(Cl)c2cccnc12
96
CCOc1c2c(c(OCC)c3ncccc13)CN(c1ccc(CS(=O)(=O)NC(=O)Cc3ccccc3OC)cc1C)C2=O
99
O=S(=O)(c1ccccc1)c1cnc2c(N3CCNCC3)cccc2c1 [INTEPIRDINE]
99
CCCC(CCC)C(=O)O
100
COc1ccc2c(c1)C(C(=O)N(Cc1ccc(N(C)C)cc1)c1ccc(C(C)C)cc1)CCC2.Cl (centres undefined)
90
CCCN1CCC[C@@H]2Cc3n[nH]cc3C[C@H]21.Cl [QUINPIROLE HYDROCHLORIDE]
99
CN1CCN2c3ncccc3Cc3ccccc3C2C1 (centres undefined)
99
Cc1ccc(-c2ccc(F)cc2COc2ccc(CCC(=O)O)cc2)cc1
97
CNC[C@H](O)c1ccc(O)c(O)c1 [EPINEPHRINE]
88
COc1c(C)cc(NC(=O)c2nn(Cc3ccc(F)cc3)c3c2CN(C(=O)c2ccc[nH]2)C[C@]3(C)C(N)=O)cc1C
92
O=C(O)c1cc2ccccc2c(Cc2c(O)c(C(=O)O)cc3ccccc23)c1O
98
COc1cc(NC(=O)CCN2CCC(OC(=O)Nc3ccccc3-c3ccccc3)CC2)c(Cl)cc1CNC[C@H](O)c1ccc(O)c2[nH]c(=O)ccc12
90
